tested_system: fibronectin isolated from human plasma (human, UniProt P02751 32-2477, in the fibers 5% of the protein was Cy5-labeled (Cy5-maleimide on the cryptic cysteines at FnIII7 and FnIII15))
test_description: fluorescence polarisation; anisotropy titration; 100 nM Alexa-488 labeled peptide in PBS, Fn titrated from 0 to 1.4 μM, 20 °C; one-site-binding model; three independent measurements
study_conditions: both partners purified
No end group written: not given here.
measurement_type: pKd
// pKd here means minus log10 of the molar concentration (mol/L)

Reported pKd of {C(Alexa488)}-GQVTTESNLVEFDEESTKGIVTGAVSDHTTVEDTK [FnBPA5-Alexa488] : 7.12
